- target of assay: pooled human IgG
measurement name: Enzyme Activity Endpoint Assay: IgG (ng/µL)
Write it as a number; the unit ng/µL goes unstated.

- protein: "PRT-48 (protein) MANQEIRYSEVTPYHVTSVWTKGVTPPANFTQGEDVFHAPYKANQGWYDINKTFNGGDDLLCGAATAGNMLHWWFDQNKDYIDRYLEEHPEKQKINFNGEQMFDVKEAIDTKNNQTDSKLFEYFKEKAFPYLSTKHLGVFPDRVIDMFINGYRLSLTNHGPTPVKEGSKDPRGGFFDDVFTRGDQSKLLTSRHDFKEKNLKEISDLIKKELKEGKALGLSHTYANVRINHVINLWGADFDSNGNLKAIYVTDSDSNASVGMKKYRVGVNSAGKVAISAKEIKEDNIGAQVLGLFTLSTGQDSWNQTN"
  units of measure: "ng/µL"
  endpoint result: 141

Let's switch to this protein now.
Per the record, PRT-37 (protein) MANQEIRYSEVTPYHVTSVWTKGVTPPANFTQGEDVFHAPYVANQGWYDITKTFNGKDDLLCGAATAGNMLHWWFDQNKDQIKRYLEEHPEKQKINFNGEQMFDVKEAIDTKNHQLDSKLFEYFKEKAFPYLSTKHLGVFPDHVIDMFINGYRLSLTNHGPTPVKEGSKDPRGGIFDAVFTRGDQSKLLTSRHDFKEKTLKEISDLIKKELTEGKALGLSHTYANVRINHVINLWGADFDSNGNLKAIYVTDSDSNASIGMKKYFVGVNSAGKVAISAKEIKEDNIGAQVLGLFTLSTGQDSWNQTN has Enzyme Activity Endpoint Assay: IgG of 23
